Biological target: Cytochrome P450 3A4 (Homo sapiens) (UniProt P08684)
Sequence (P08684 whole entry, looked up): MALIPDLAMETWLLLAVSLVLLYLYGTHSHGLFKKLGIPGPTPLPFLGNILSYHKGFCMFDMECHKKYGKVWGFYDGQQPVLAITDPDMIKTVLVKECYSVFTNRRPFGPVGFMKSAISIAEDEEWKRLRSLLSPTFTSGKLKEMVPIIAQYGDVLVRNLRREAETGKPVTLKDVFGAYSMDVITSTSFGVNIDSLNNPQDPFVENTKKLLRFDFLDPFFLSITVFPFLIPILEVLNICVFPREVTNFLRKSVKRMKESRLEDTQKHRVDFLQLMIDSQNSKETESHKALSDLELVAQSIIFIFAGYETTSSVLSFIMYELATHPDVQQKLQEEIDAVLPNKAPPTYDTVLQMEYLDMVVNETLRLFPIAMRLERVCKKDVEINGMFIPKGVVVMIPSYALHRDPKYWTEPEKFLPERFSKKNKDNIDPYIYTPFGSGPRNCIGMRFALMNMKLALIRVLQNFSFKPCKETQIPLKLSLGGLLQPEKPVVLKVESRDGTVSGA
Experiment: Cytochrome panel assay with activity outcomes
Details: recombinant CYP, pro-luciferin dealkylation, luminescence, p450-cyp3a4; series mostly up to 57.1 µM
Out of some 16,000 compounds screened, about 5,100 (32%) were called active. Roughly 25% stayed inconclusive and do not appear here. The call rests on the fitted dose curve; in most records, active means well fitted curve in the direction sought with a large enough effect; inconclusive means small, poorly fitted or top-dose-only effect, or effect the other way; inactive means no such curve, though single readings can be large or run the other way. This is one part of the list.
The categories you may choose from are T (active), F (inactive)

Reference set (5 entries):
>  <compound>
O=C(N/N=C/c1cccc(Oc2ccccc2)c1)c1cccc(Br)c1

>  <class-assignment>
F

$$$$
>  <compound>
CC(C)(C=O)Cc1cc(C(C)(C)C)c(O)c(C(C)(C)C)c1

>  <class-assignment>
T

$$$$
>  <compound>
C/C(N)=C(/C#N)C(=O)CSc1nnc(COc2cc(C)ccc2C)o1

>  <class-assignment>
T

$$$$
>  <compound>
CCC#CCOCC(=O)Nc1ccccc1

>  <class-assignment>
F

$$$$
>  <compound>
COC(=O)c1ccccc1OCC(=O)N1CCN(c2ccc(Cl)cc2)CC1

>  <class-assignment>
T

$$$$

// query Check the results log: what was the call for O=C(Nc1nnc(SCc2c(Cl)cccc2Cl)s1)C1CCCO1 (configuration not stated) ?
// result T
